biological target: Kallikrein-5 (Homo sapiens); test: inhibition of kallikrein 5 (hK5) activity – biochemical, 1536-well, primary screen (AID 873); conditions: recombinant hK5, fluorogenic AMC substrate cleavage; at 5 µM; active compounds read high;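 note: 0% = enzyme controls without compound and 100% = no-enzyme blanks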
Among all 210,000 compounds or so, about 1,300 (0.62%) were called active. Many of the other results were omitted from the sample, so actives are more common in it than they were.
Listed here are molecules together with their documented inhibition.

C/C(Cc1ccccc1)=N\NC(=O)CNC(=O)c1cccc(Br)c1 = -15.8% (inactive)
CCCNc1c(N)c(=O)c1=O = -0.24% (inactive)
O=C(O)CSc1nccc2ccccc12 = -3.99% (inactive)
COC(=O)c1sccc1NC(=O)CC1C(=O)NCCN1C(=O)Nc1ccc(F)cc1F (configuration not stated) = -1.42% (inactive)
COCCNC(=O)Cn1cc(C(=O)c2cccs2)c2ccccc21 = -5.68% (inactive)

Task item: Query inhibition on Kallikrein-5 (Homo sapiens) for Cc1ccc(N2C(=O)CC(Nc3cccc4ccccc34)C2=O)cc1 (configuration not stated)
Reply: 0.34% (inactive)

Task item: Entry O=C(NCCc1ccccc1)c1ccc(OCCOc2ccccc2)cc1 , system Kallikrein-5 (Homo sapiens): what inhibition was measured?
Reply: 79.7% (active)

Task item: For the record COc1cccc(N(CC(=O)Nc2cccc(F)c2)S(C)(=O)=O)c1 , what value of inhibition is listed for Kallikrein-5 (Homo sapiens)?
Reply: 2.06% (inactive)

Task item: Give the reported inhibition for COc1ccc2oc(C)c(NC(C)=O)c2c1 (system: Kallikrein-5 (Homo sapiens)).
Reply: -13.5% (inactive)

Task item: Under Kallikrein-5 (Homo sapiens): inhibition value of COC(=O)c1cc(C(=O)OCC(=O)Nc2cc(C)on2)cc([N+](=O)[O-])c1 ?
Reply: 23.6% (inactive)

Task item: So what inhibition did Cc1ccc(Nc2c3c(nc4ccccc24)CCC3)cc1 get with Kallikrein-5 (Homo sapiens)?
Reply: -1.22% (inactive)

Task item: Lab note: need inhibition with Kallikrein-5 (Homo sapiens) for entry Cc1ccc(C(O)P(=O)(OC(C)C)c2ccc(N(C)C)cc2)cc1 (configuration not stated) , please look it up.
Reply: -0.37% (inactive)
